molecular target: thrombin (Bos taurus, UniProt P00735;P00735 P00735:318-366,P00735:367-625); experiment: FP; K+ phosphate buffer pH 7.0, 20 C; Table 6 lists 1.5±0.3 uM; details: tags: bovine thrombin dry powder, Sigma Aldrich; label: 5'-4QI; antiparallel G4
Assay Readout: Kd (nM)
Report the value in nM with no unit label.

stdin: Give Kd for GGTTGGTGTGGTTGGT (structured_DNA, 5'-4QI merocyanine end-label; extra 3' dT) [4QI-TBA-E]
stdout: 1100
